All figures here come from patent EP1027361B1.

# Tested on: Micrococcus luteus ATCC 9341
# Assay method text: in vitro antibacterial activity, agar dilution MIC
# Type: cell-based
# Condition context: organism code OO, BHI agar, 35-37 °C, 20 to 24 hours
Exercise: state measured minimum inhibitory concentration (MIC) for each of the compounds provided.
One number for each entry.

Study these solved cases before continuing.
{"columns": ["Compound", "Subject of test", "Property", "Readout value"],
 "data": [
  ["CC[C@H]1OC(=O)[C@H](C)[C@@H](O[C@H]2C[C@@](C)(OC)[C@@H](O)[C@H](C)O2)[C@H](C)[C@@H](O[C@@H]2O[C@H](C)C[C@H](N(C)C)[C@H]2O)[C@](C)(O)C[C@@H](C)C(=O)[C@H](C)[C@@H](O)[C@]1(C)O [Ery. A, Erythromycin A, reference compound]", "Micrococcus luteus ATCC 9341", "minimum inhibitory concentration (MIC)", 0.05],
  ["CC[C@H]1OC(=O)[C@H](C)[C@@H](O[C@H]2C[C@@](C)(OC)[C@@H](O)[C@H](C)O2)[C@H](C)[C@@H](O[C@@H]2O[C@H](C)C[C@H](N(C)C)[C@H]2O)[C@@]2(C)C[C@@H](C)C(=O)[C@H](C)[C@H]3N(CC(O)CC=CCO2)C(=O)O[C@]13C (stereo partly shown) [Example 19]", "Micrococcus luteus ATCC 9341", "minimum inhibitory concentration (MIC)", 0.05],
  ["CC[C@H]1OC(=O)[C@H](C)[C@@H](O[C@H]2C[C@@](C)(OC)[C@@H](O)[C@H](C)O2)[C@H](C)[C@@H](O[C@@H]2O[C@H](C)C[C@H](N(C)C)[C@H]2O)[C@@]2(C)C[C@@H](C)C(=O)[C@H](C)[C@H]3N(CCCCO2)C(=O)O[C@]13C [Example 15]", "Micrococcus luteus ATCC 9341", "minimum inhibitory concentration (MIC)", 0.05]
]}

Go through the list and state minimum inhibitory concentration (MIC) for each entry.
1. CC[C@H]1OC(=O)[C@H](C)C(=O)[C@H](C)[C@@H](O[C@@H]2O[C@H](C)C[C@H](N(C)C)[C@H]2O)[C@@]2(C)C[C@@H](C)C(=O)[C@H](C)[C@H]3N(CCOCc4ccccc4C=CCO2)C(=O)O[C@]13C [Example 12]
2. CC[C@H]1OC(=O)[C@H](C)[C@@H](O[C@H]2C[C@@](C)(OC)[C@@H](O)[C@H](C)O2)[C@H](C)[C@@H](O[C@@H]2O[C@H](C)C[C@H](N(C)C)[C@H]2O)[C@@]2(C)C[C@@H](C)C(=O)[C@H](C)[C@H]3N(CCNCc4cccc(c4)C=CCO2)C(=O)O[C@]13C [Example 11]
3. CC[C@H]1OC(=O)[C@H](C)[C@@H](O[C@H]2C[C@@](C)(OC)[C@@H](OC(C)=O)[C@H](C)O2)[C@H](C)[C@@H](O[C@@H]2O[C@H](C)C[C@H](N(C)C)[C@H]2O)[C@@]2(C)C[C@@H](C)C(=O)[C@H](C)[C@H]3N(CCNCc4cccc(c4)C=CCO2)C(=O)O[C@]13C [Example 10]
4. CC[C@H]1OC(=O)[C@H](C)[C@@H](O[C@H]2C[C@@](C)(OC)[C@@H](O)[C@H](C)O2)[C@H](C)[C@@H](O[C@@H]2O[C@H](C)C[C@H](N(C)C)[C@H]2O)[C@@]2(C)C[C@@H](C)C(=O)[C@H](C)[C@H]3N(CCC=CCO2)C(=O)O[C@]13C [Example 17]

0.2
0.2
0.39
0.02
